- System: nuclear import of SV40-NLS-BSA (biotinylated BSA-NLS)
- experiment: Quantitative ELISA-based nuclear import assay, inhibition of NLS-BSA (SV40-NLS-BSA) uptake in permeabilized Colo-205 cells
- Format: cell-based
- test.conditions: SV40-NLS-BSA substrate; peptide:substrate molar ratios between 500:1 and 0.005:1
Ends that are not written are not given here.
Consider the following substances and their measured IC50 readings.
measurement.label: IC50 (µM)

substance	measurement.label	meas.value
C^7KRSMGGWSAIRERMRR^22 [Nef NLS]	IC50	11
C^88EWRKKRYSTOV^98 [Vif 88-98] (CEWRKKRYSTQV; not fully specified; printed as C^88EWRKKRYSTOV^98 [Vif 88-98]; UniProt P69723 88-98, looked up, fragment)	IC50	62
C^35RQARRNRRRRWRERQRQ^51 (N-terminal cysteine; UniProt P04618 35-51, looked up, fragment) [Rev NLS]	IC50	347

Reference source for all entries: patent US6664368B1
